B1: P2RY14 (parent)
chain: KLLSVIVWMLMLLLAVPNIILTNQ

Variants of: B1
run-description: protein stability index of a GFP-peptide fusion (GPS, HEK-293T) (PSI 1-6); higher = more stable;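 further: lentivirally expressed fusions sorted by FACS into six bins by GFP to DsRed ratio, PSI derived from sequencing read proportions per bin multiplied by bin number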
measurement-conditions: c terminus: a fixed tail appended

[
  {
    "variant-id": "L3M",
    "protein stability index": 1.64
  },
  {
    "variant-id": "V5G",
    "protein stability index": 4.02
  },
  {
    "variant-id": "L2K",
    "protein stability index": 2.76
  },
  {
    "variant-id": "L13V",
    "protein stability index": 1.84
  },
  {
    "variant-id": "T22F",
    "protein stability index": 2.97
  },
  {
    "variant-id": "S4Y",
    "protein stability index": 2.82
  },
  {
    "variant-id": "I6A",
    "protein stability index": 2.45
  },
  {
    "variant-id": "A15K",
    "protein stability index": 3.74
  },
  {
    "variant-id": "L3I",
    "protein stability index": 1.73
  },
  {
    "variant-id": "V5N",
    "protein stability index": 2.29
  },
  {
    "variant-id": "V16L",
    "protein stability index": 3.59
  },
  {
    "variant-id": "K1L",
    "protein stability index": 3.3
  },
  {
    "variant-id": "V16I",
    "protein stability index": 3.43
  },
  {
    "variant-id": "M11A",
    "protein stability index": 2.06
  },
  {
    "variant-id": "N23V",
    "protein stability index": 2.99
  }
]
